- Test system: OVCAR-4
- method-summary: NCI tumour cell line growth inhibition, 48 h
Activity calls are given as the source filed them. Cut-off read from the data, not from the text of the source: active = GI50 up to about 1.1 µM and inactive = higher. Where a SMILES comes first, the peptide text is derived from it. [ ]: non-standard residue; d: D form. The star is where a group is joined. ξ: configuration not given here. ξF = NC(Cc1ccccc1)C(=O)O; Cbz = O=C(OCc1ccccc1)*; Aib = CC(C)(N)C(=O)O
Respond only with the outcome that fits, drawn from 1 for active, 0 for inactive

Task item: Recorded test call requested for Sc1nn2c(Cc3ccccc3)nnc2s1
Reply: 0

Task item: Recorded test call requested for N=C(N)NS(=O)(=O)c1ccc(Nc2c3ccccc3nc3c(C(=O)NCCO)cccc23)cc1
Reply: 1

Task item: Recorded test call requested for COC(=O)C1C2CCCN2OC1(C)CO (stereo unspecified)
Reply: 0

Task item: Recorded test call requested for CN(C)CCCCN1c2ccccc2Sc2ccc(N=[N+]=[N-])cc21
Reply: 0

Task item: Recorded test call requested for CSc1nc(NC(=O)O)c(N(C(C)=O)C(=O)O)c(=O)n1C
Reply: 0

Task item: Recorded test call requested for CN(C)c1ccc(/C=C2\Cc3ccccc3C2=O)cc1Br
Reply: 0

Task item: Recorded test call requested for COC(=O)C(C)(C)NC(=O)C(Cc1ccccc1)NC(=O)C(C)(C)NC(=O)OCc1ccccc1 (stereo unspecified) (Cbz-[Aib]-[ξF]-[Aib]-OMe)
Reply: 0

Task item: Recorded test call requested for COc1ccc2nc3cc(Cl)ccc3c(Sc3ccc([N+](=O)[O-])cc3C)c2c1
Reply: 0

Task item: Recorded test call requested for O=C1c2ccccc2C2=Cc3ccccc3C(O)N12 (stereo unspecified)
Reply: 0

Task item: Recorded test call requested for O=C(NCCCCCCCCNC(=O)c1cnc2ccccc2n1)c1cnc2ccccc2n1
Reply: 0

Task item: Recorded test call requested for CC1CC2C(=O)N(c3ccccc3)C(=O)C2c2[nH]c3ccccc3c21 (stereo unspecified)
Reply: 0

----------
- System: SR
- method-summary: NCI tumour cell line growth inhibition, 48 h
Active and inactive are the calls of the source. Rule as the data show it: active = GI50 up to about 1.1 µM and inactive = higher.
Respond only with the outcome that fits, drawn from T (active), F (inactive)

Task item: Recorded test call requested for CC1=C(C(=O)Nc2c(C)cccc2C)C(c2ccc3c(c2)OCO3)C(C(=O)Nc2c(C)cccc2C)=C(C)N1
Reply: F

Task item: Recorded test call requested for COc1cc(/C=C/C(=O)Oc2ccc(NC(C)=O)cc2)ccc1C(=O)OCc1ccccc1
Reply: F

Task item: Recorded test call requested for CCOP(=O)(CCCC(O)CNc1nc(N)nc(Cl)c1/N=N/c1ccc(Cl)cc1)OCC (centres undefined)
Reply: F

Task item: Recorded test call requested for Cc1oc(N)c(S(=O)(=O)c2cc3ccccc3[n+]([O-])c2N)c1C
Reply: T

Task item: Recorded test call requested for Nc1c2ccccc2nc2ccc(C(=O)Nc3ccc(S(N)(=O)=O)cc3)cc12
Reply: F

Task item: Recorded test call requested for CC(=O)NC1C(OCc2ccccc2)OC(CO)C(O)C1OC(C)C(=O)NC(C)C(=O)N[C@@H](CCC(=O)OCCCNC1c2ccccc2Nc2cccc([N+](=O)[O-])c21)C(N)=O (some centres undefined)
Reply: T

Task item: Recorded test call requested for C/C=C1\CN(C(=O)OC(C)(C)C)C1C(=O)OC(C)(C)C (centres undefined)
Reply: F

Task item: Recorded test call requested for COC(=O)c1c(O)ccc2[nH]c3c(O)c4ccccc4cc3c12
Reply: F

Task item: Recorded test call requested for CC1(c2nc3ccccc3[nH]2)CCC(C(N)=O)C(C)(C)O1 (centres undefined)
Reply: F
